Test system: Fibroblast
Assay: Multiplex assay against human fibroblast
Format: toxicity, cell-based
Conditions: 24 h, 1 µM, compound concentration 1 uM, replicate 1
READOUT: Population Mitotic Cells (%)
Please make sure the unit comes right after the number.

Quick one: Population Mitotic Cells (%) of `Cc1csc2c(N[C@@H](C)CN3CCN(S(=O)(=O)c4ccc(Cl)c(Cl)c4)CC3)ncnc12` ?
40%

Okay, and CN(C)CC#Cc1ccc(OCCCc2sc(N3CCc4cccc(C(=O)Nc5nc6ccccc6s5)c4C3)nc2C(=O)O)c(F)c1 [A-1155463] ?
37%

Okay, and c1cn2cc(-c3ccc4cn[nH]c4c3)nc(Nc3ccc(N4CCOCC4)cc3)c2n1 [ENTOSPLETINIB] ?
40%

Okay, and CCN(CC)CCCCNc1ncc2cc(-c3cc(OC)cc(OC)c3)c(NC(=O)NC(C)(C)C)nc2n1 [PD-173074] ?
40%

Okay, and Cl.N#Cc1ccc2[nH]cc(CCCCN3CCN(c4ccc5oc(C(N)=O)cc5c4)CC3)c2c1 [VILAZODONE HYDROCHLORIDE] ?
36%

Okay, and CC[C@H](C)C(=O)O[C@H]1C[C@@H](C)C=C2C=C[C@H](C)[C@H](CC[C@@H]3C[C@@H](O)CC(=O)O3)[C@H]21 [LOVASTATIN] ?
55%

###

Tested on: U2OS
Assay: Multiplex assay against U2OS
Assay type: toxicity, cell-based
Conditions: human, 24 h, 1 µM, compound concentration 1 uM, replicate 2
READOUT: Total Cell Count
Hey, just send me the number, nothing else.

Param readout = Total Cell Count; param system = U2OS; param query = `NC(=O)Nc1cc(-c2cccc(F)c2)sc1C(=O)N[C@H]1CCCNC1` ; response: value
97

Okay, and `c1cn2cc(-c3ccc4cn[nH]c4c3)nc(Nc3ccc(N4CCOCC4)cc3)c2n1` ?
78

Okay, and C[C@@H](NCCCc1cccc(C(F)(F)F)c1)c1cccc2ccccc12.Cl [CINACALCET HYDROCHLORIDE] ?
53

Okay, and CN(C)C(=O)N[C@H]1CC[C@H](CCN2CCN(c3cccc(Cl)c3Cl)CC2)CC1.Cl [CARIPRAZINE HYDROCHLORIDE] ?
67

Okay, and `CC(C)(O)CNc1ncc(-c2ccnc(Nc3ccnc(Cl)c3)n2)c(CC2CC2)n1` ?
136

Okay, and `Cc1c(-c2ccc(O)cc2)n(Cc2ccc(OCCN3CCCCCC3)cc2)c2ccc(O)cc12` ?
60

Okay, and `Cc1[nH]c(/C=C2\C(=O)Nc3ccc(S(=O)(=O)N(C)c4cccc(Cl)c4)cc32)c(C)c1C(=O)N1CCN(C)CC1` ?
65

Okay, and Cl.N#Cc1ccc2[nH]cc(CCCCN3CCN(c4ccc5oc(C(N)=O)cc5c4)CC3)c2c1 [VILAZODONE HYDROCHLORIDE] ?
54

Okay, and `CN(C)CC#Cc1ccc(OCCCc2sc(N3CCc4cccc(C(=O)Nc5nc6ccccc6s5)c4C3)nc2C(=O)O)c(F)c1` ?
92

Okay, and `Cc1cc(C)cc(-c2cnc3cc(Cl)c(-c4cccc(O)c4)cc3c2OCCCN)c1` ?
66

Okay, and `C=CC(=O)Nc1cccc(C(=O)Nc2ccc(Nc3cc(-c4[nH]c(SC)nc4C)ccn3)cc2)c1` ?
122

Okay, and `Cc1csc2c(N[C@@H](C)CN3CCN(S(=O)(=O)c4ccc(Cl)c(Cl)c4)CC3)ncnc12` ?
64

Okay, and `CNc1nc(NCc2ccc(NS(C)(=O)=O)cc2Cl)cc(-c2ccccn2)n1` ?
67

Okay, and `CCN(CC)CCCCNc1ncc2cc(-c3cc(OC)cc(OC)c3)c(NC(=O)NC(C)(C)C)nc2n1` ?
168

Okay, and `COc1ncc(-c2ccc3nccc(-c4ccnnc4)c3c2)cc1NS(=O)(=O)c1ccc(F)cc1F` ?
50

Okay, and COc1cccc([C@@H](C)NCCCc2ccccc2Cl)c1.Cl [TECALCET HYDROCHLORIDE] ?
95

Okay, and C=CC(=O)Nc1cc2c(Nc3ccc(F)c(Cl)c3)ncnc2cc1OCCCN1CCOCC1.Cl.Cl [CANERTINIB DIHYDROCHLORIDE] ?
85

Okay, and CN1CCCC(n2nc(Cc3ccc(Cl)cc3)c3ccccc3c2=O)CC1.Cl (stereo not drawn) [AZELASTINE HYDROCHLORIDE] ?
57

Okay, and `Cc1nc(-c2cn3c(n2)-c2ccc(-c4cnn(C(C)(C)C(N)=O)c4)cc2OCC3)n(C(C)C)n1` ?
91

Okay, and `Cc1nc(Nc2n[nH]c3c2CN(C(=O)N[C@H](CN(C)C)c2ccccc2)C3(C)C)c2sccc2n1` ?
121

Okay, and `CN1CCN(c2ccc(OC(F)(F)F)c(Nc3ncc4c(n3)-c3c(c(C(N)=O)nn3CCO)CC4)c2)CC1` ?
73

Okay, and CN1CCC[C@@H]1CCO[C@](C)(c1ccccc1)c1ccc(Cl)cc1.O=C(O)/C=C/C(=O)O [CLEMASTINE FUMARATE] ?
107

Okay, and `CN(C)C(=O)/C(C#N)=C/c1ccc(-c2nc3cnc4[nH]ccc4c3n2C2CCCCC2)o1` ?
81

Okay, and O=C1NCN(c2ccccc2)C12CCN(CCCOc1ccc(F)cc1)CC2 [SPIRAMIDE] ?
76

Okay, and `CC[C@H](C)C(=O)O[C@H]1C[C@@H](C)C=C2C=C[C@H](C)[C@H](CC[C@@H]3C[C@@H](O)CC(=O)O3)[C@H]21` ?
93

Okay, and `OC1(c2ccc(Cl)cc2)CCN(Cc2c[nH]c3ccccc23)CC1` ?
77

Okay, and `Cc1nc(-c2ccc(-c3ccc(C(=O)N4CCc5cc6c(cc54)C4(CCN(C)CC4)CO6)cc3)c(C)c2)no1` ?
73

Numbers sourced from ChEMBL document CHEMBL4689842.
